Molecular target: T1, kallikrein-related peptidase 4 (KLK4), Q9Y5K2
T1 chain: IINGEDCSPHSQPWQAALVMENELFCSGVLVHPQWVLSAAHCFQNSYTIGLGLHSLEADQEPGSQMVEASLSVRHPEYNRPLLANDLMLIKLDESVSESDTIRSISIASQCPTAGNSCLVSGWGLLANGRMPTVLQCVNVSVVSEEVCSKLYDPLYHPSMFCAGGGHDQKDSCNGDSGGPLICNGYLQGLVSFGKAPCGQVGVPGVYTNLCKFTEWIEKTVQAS
Assay: competitive inhibition assay with peptide substrate

binder	valueUnits	Ki
RVCPRILKKCRRDSDCPGACICRGNGYCG (modifications not checked) [acyclic MCoTI-II variant M]	nM	0.07
